Measured values drawn from patent US10399981B2 for this set.

# Assay Details: Evaluation on pharmacokinetics of compound in SD rats
# Assay type: in vivo
# Reported Conditions: male, Sprague-Dawley, rat, plasma, single intravenous injection and oral administration, read-out: Concentration integral AUC
# AUC per record follows
Just the number please, in µM·h, no unit attached.

INSERT INTO results (molecule, measure, endpoint_unit, recorded_measurement) VALUES
  ('CC(=O)CCCCn1c(=O)c2c(ncn2C)n(C)c1=O [Pentoxifylline, reference compound]', 'AUC', 'µM·h', 6.62);

--- query ---
Short answer for Cn1c(=O)n(C[C@H]2CC[C@@](C)(O)CC2)c(=O)c2c1ncn2CC1CC1 : AUC was 4.39
